meta.source: patent US10894784B2

Molecular target: TBK1 (Homo sapiens (Human))
Sequence (Q9UHD2 whole entry): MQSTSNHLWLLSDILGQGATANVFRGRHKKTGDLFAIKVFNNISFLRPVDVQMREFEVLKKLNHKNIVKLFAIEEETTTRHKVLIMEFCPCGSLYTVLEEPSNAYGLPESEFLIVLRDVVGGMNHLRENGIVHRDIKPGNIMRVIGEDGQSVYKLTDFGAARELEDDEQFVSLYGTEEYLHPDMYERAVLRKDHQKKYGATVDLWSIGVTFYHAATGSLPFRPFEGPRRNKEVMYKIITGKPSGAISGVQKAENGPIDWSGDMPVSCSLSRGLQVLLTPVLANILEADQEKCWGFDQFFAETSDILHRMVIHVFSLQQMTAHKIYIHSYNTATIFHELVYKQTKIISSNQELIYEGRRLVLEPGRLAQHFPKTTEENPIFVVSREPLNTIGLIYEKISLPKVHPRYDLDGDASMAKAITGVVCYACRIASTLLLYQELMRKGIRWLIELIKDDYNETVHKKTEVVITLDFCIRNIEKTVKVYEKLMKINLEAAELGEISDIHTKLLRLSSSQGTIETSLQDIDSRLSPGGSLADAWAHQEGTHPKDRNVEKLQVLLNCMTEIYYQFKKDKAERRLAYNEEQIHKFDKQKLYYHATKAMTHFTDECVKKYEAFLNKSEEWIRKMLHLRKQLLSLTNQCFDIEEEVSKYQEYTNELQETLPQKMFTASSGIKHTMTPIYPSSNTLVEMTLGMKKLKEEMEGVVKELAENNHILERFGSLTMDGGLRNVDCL
Experiment: TBK1 low ATP kinase assay (in vitro assay 1)
Format: biochemical
Conditions: in vitro assay 1, read-out: TBK1 low ATP kinase assay IC50
endpoint_label: IC50 (nM)

COc1nccc(-c2ccc3nc(Nc4cc(CN5CCN(C(=O)C6CC6)CC5)ccn4)[nH]c3c2)c1C ... 2260

[1] COc1cncnc1-c1ccc2nc(Nc3cc(C(C)N4CCN(C(=O)C5CC5)CC4)ccn3)[nH]c2c1 (single isomer, unassigned) [Example 35.03.03.A]
[2] CC(c1ccnc(Nc2nc3ccc(-c4cc(N5CCCC5)ncn4)cc3[nH]2)c1)N1CCN(C(=O)C2CC2)CC1 (single isomer, unassigned)
[3] COc1cnccc1-c1ccc2nc(Nc3cc(CN4CCN(C(=O)C(C)(C)OC)CC4)ccn3)[nH]c2c1
[4] CN(C)c1ccnc(-c2ccc3nc(Nc4cc(CN5CCN(C(=O)CC(F)(F)F)CC5)ccn4)[nH]c3c2)n1
[5] CC(c1ccnc(Nc2nc3cc(-c4cc(C(F)(F)F)nn4C)ccc3[nH]2)c1)N1CCN(C(=O)OC(C)(C)C)CC1 (single isomer, unassigned)
stdin: Please rank these compounds by IC50 in descending order. Return the labels ranked in the requested order, please.
stdout: 5, 4, 3, 1, 2
(5: 11000 nM, 4: 152 nM, 3: 28.3 nM, 1: 5.62 nM, 2: 0.33 nM)

====

Biological target: UniProt:Q9UHD2
Assay: TBK1 low ATP kinase assay (in vitro assay 1)
Type: biochemical
Details: in vitro assay 1, read-out: TBK1 low ATP kinase assay IC50
endpoint_label: IC50 (nM)

Examples from the recorded data:
COc1cc(-c2ccc3nc(Nc4cc(C(C)N5CCN(C(=O)CC(F)(F)F)CC5)ccn4)[nH]c3c2)ncn1 (racemic) [Example 34.02.01] ... 12.4
CC(=O)N1CCN(Cc2ccnc(Nc3nc4ccc(-c5nc(C)no5)cc4[nH]3)c2)CC1 [Example 101.06] ... 990
CC(c1ccnc(Nc2nc3ccc(-c4cnn(CC5CC5)c4)c(F)c3[nH]2)c1)N1CCN(C(=O)C2CC2)CC1 (single isomer, unassigned) [Example 121.03] ... 1.6
Cc1cc(-c2ccc3nc(Nc4cc(C(C)N5CCN(C(=O)C6CC6)CC5)ccn4)[nH]c3c2)ncn1 (racemic) [Example 30.02.03] ... 3.73
O=C(C1CC1)N1CCN(Cc2ccnc(Nc3nc4ccc(-c5ncnc(NC6CCC6)c5F)cc4[nH]3)c2)CC1 [Example 194.03] ... 49.4
O=C(CC(F)(F)F)N1CCN(Cc2ccnc(Nc3nc4ccc(-c5ncnc6sccc56)cc4[nH]3)c2)CC1 [Example 105.01] ... 270
Cc1cc(CN2CCN(C(=O)C3CC3)CC2)cc(Nc2nc3ccc(-c4ccncn4)cc3[nH]2)n1 [Example 23.02.02] ... 13.6
CC(C)(C)OC(=O)N1CCN(Cc2ccnc(Nc3nc4ccc(-c5cnc(Br)cn5)cc4[nH]3)c2)CC1 [Example 140.01] ... 13
CC(c1ccnc(Nc2nc3ccc(-c4cc(N5CCOCC5)ncn4)cc3[nH]2)c1)N1CCN(C(=O)CC(F)(F)F)CC1 (single isomer, unassigned) [Example 118.03] ... 1.4
CC(c1ccnc(Nc2nc3ccc(-c4cc(N5CCCC5)ncn4)cc3[nH]2)c1)N1CCN(C(=O)OC(C)(C)C)CC1 (single isomer, unassigned) [Example 117.01] ... 2

[I] CC(c1ccnc(Nc2nc3ccc(-c4cnn(CC5CC5)c4)c(F)c3[nH]2)c1)N1CCN(C(=O)CC(F)(F)F)CC1 (single isomer, unassigned) [Example 121.02]
[II] CC(C)Cc1nc(-c2ccc3nc(Nc4cc(CN5CCN(C(=O)CC(F)(F)F)CC5)ccn4)[nH]c3c2)n(C)n1 [Example 42.02]
stdin: // pick min by IC50: I , II // output: label of the selected item
stdout: I
